Measurement record for Acetylcholinesterase (Electrophorus electricus, UniProt O42275); quantity recorded: pIC50.
Just the number, please; pIC50 means minus log10 of the concentration in mol/L.

Query :: Find the recorded pIC50 belonging to O=C(Nc1ccc([N+](=O)[O-])cc1)O[C@H]1CO[C@H]2[C@@H]1OC[C@H]2OC(=O)Nc1ccc([N+](=O)[O-])cc1 and report it.
Result :: 5.27

Query :: CCNC(=O)O[C@H]1CO[C@H]2[C@@H]1OC[C@H]2OC(=O)NCC , same question.
Result :: 5.19

====

target: Acetylcholinesterase (Electrophorus electricus)
Sequence (O42275 whole entry): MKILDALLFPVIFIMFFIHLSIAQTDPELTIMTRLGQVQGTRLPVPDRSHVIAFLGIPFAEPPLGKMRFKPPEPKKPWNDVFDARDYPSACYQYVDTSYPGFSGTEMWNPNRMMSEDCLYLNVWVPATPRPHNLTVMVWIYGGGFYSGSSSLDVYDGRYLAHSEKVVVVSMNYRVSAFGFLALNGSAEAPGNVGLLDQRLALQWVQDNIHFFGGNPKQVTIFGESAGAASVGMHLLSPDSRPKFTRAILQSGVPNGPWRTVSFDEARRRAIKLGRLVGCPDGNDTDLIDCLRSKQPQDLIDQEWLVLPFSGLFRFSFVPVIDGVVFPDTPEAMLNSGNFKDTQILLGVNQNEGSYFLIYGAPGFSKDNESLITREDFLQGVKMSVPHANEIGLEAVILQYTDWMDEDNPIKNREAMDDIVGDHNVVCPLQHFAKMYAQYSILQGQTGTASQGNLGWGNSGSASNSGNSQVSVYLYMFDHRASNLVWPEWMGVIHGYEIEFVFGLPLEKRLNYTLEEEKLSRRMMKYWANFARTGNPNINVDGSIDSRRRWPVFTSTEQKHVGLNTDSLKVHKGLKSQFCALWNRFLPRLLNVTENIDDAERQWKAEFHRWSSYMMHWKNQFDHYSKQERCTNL
assay protocol: Inhibition of electric eel AChE at 100 uM preincubated for 30 mins before substrate addition by Ellman's assay
outcome measure: inhibition (%)
Return type: number; implicit unit %.

Query :: Find the recorded inhibition belonging to O=C(NCc1ccccc1)O[C@H]1CO[C@@H]2C(=O)CO[C@H]12 and report it.
Result :: 10

Query :: O=C1CO[C@H]2[C@H](OC[C@@H]2OC(=O)NCc2ccccc2)O1 (relative stereo) , same question.
Result :: 10

Query :: O=C(NCc1ccccc1)O[C@H]1CO[C@@H]2C=CO[C@H]12 , same question.
Result :: 9.8

Numbers sourced from ChEMBL document CHEMBL1156880.
